Give measured T/C for each item. Keep answers brief.
Test system: CD2F1 mice, L1210 leukemia ip, survival T/C
Test: NCI In Vivo Anticancer Drug Screen. Data for tumor model L1210 Leukemia (intraperitoneal) in CD2F1 (CDF1) mice
Conditions: endpoint: mean survival time; dose: 100.0 mg/kg/injection; schedule: Q04DX003 (ip); vehicle: saline with Tween-80; higher = longer survival
Inconclusive results and toxic doses are left out.

Reported T/C for Nc1ncnc2c(C3OC(CO)C(O)C3O)[nH]nc12 (stereo not drawn) : what is it?
101 % of control

Fill in: T/C of `C[n+]1csc2ccccc21` is ___
103 % of control

Reported T/C for `O=S(=O)(O)c1ccc(N=Nc2ccc(O)cc2)cc1` : what is it?
100 % of control

GET /values?readout=T/C&item= `Cc1ccc(S(=O)(=O)N(CCC(=O)O)c2ccccc2)cc1`
101 % of control

Please look up its T/C: CCOC(=O)CC1c2nc3ccccc3cc2CN1C(=O)CCOC(C)=O (stereo not drawn)
104 % of control

Fill in the blank: the reported T/C of `C/C=C(/c1ccccc1)c1ccc(N(C)C)cc1` is ____.
98 % of control

Fill in: T/C of `Nc1cccc(CCCCc2cccc(S(=O)(=O)F)c2)c1` is ___
100 % of control

# input compound: `CCCCCCCCCCCCS(=O)(=O)O` ; wanted: its T/C
119 % of control

What does the record list as T/C for `Cc1cc(CC(O)(C(F)(F)Cl)C(F)(F)Cl)cc(C)n1` ?
95 % of control

Query: T/C; subject: `Cc1ccc(C2(C(=O)O)CCCC2)cc1`
97 % of control

What value of T/C has been reported for the following compound? `CCCN(CCC)CCC(=O)OCC`
97 % of control

Which T/C is listed for O=C1CNC(c2ccccc2)C(c2ccccc2)N1 (stereo not drawn) ?
100 % of control

# get_value(readout='T/C', item= `Cc1ccc(C(=O)c2ccc([N+](=O)[O-])cc2)cc1` )
94 % of control
